System: HOP-62 NSCLC
Assay method text: NCI-60 one-dose screen, 48 h (100 = growth as untreated, 0 = no growth, -100 = all killed)
Condition details: 10 µM unless noted
The panel holds about 83,000 compounds, 20% with a hit somewhere; the sample as a whole holds those more often.
Readout: growth (%)
State the answer as a number, implicitly in %.

These recorded examples may help you get a feel for the data.
[[record]]
compound = "CCCCCCCCCCCCCCCC1=NC(C)(C)CN1C(C)C"
measurement_unit = "%"
data_value = -77.4

[[record]]
compound = "COc1ccc(C(=O)OC2C(OC3C(O)COC(O[C@H]4C[C@H]5[C@@H]6CC=C7C[C@@H](O)CC[C@]7(C)[C@H]6CC[C@]5(C)[C@H]4[C@H](C)C(=O)CCC(C)C)C3OC(C)=O)OCC(O)C2O)cc1 (stereo not given in full)"
measurement_unit = "%"
data_value = -32.2

[[record]]
compound = "O=C(Cc1ccc([N+](=O)[O-])cc1)Oc1ccccc1"
measurement_unit = "%"
data_value = 102

[[record]]
compound = "NC(CCC(=O)NC(CS)C(=O)NCC(=O)O)C(=O)O (stereo not given)"
measurement_unit = "%"
data_value = 103

[[record]]
compound = "COc1ccc(-c2cc(C(=O)Nc3ccc(C)cc3)nc3[nH]c(=O)sc23)cc1"
measurement_unit = "%"
data_value = 84.7

[[record]]
compound = "NS(=O)(=O)c1ccc(CCn2c(SCC(=O)N/N=C/c3cccnc3)nc3ccccc3c2=O)cc1"
measurement_unit = "%"
data_value = 83.3

[[record]]
compound = "CCN(CC)c1ccc2c(cc1=O)[C@@H](NC(C)=O)CCc1cc(OC)c(OC)c(OC)c1-2"
measurement_unit = "%"
data_value = 30.9

[[record]]
compound = "CC(C)CCSc1nc(-c2ccc(F)cc2)c(C#N)c(N2CCCCC2)n1"
measurement_unit = "%"
data_value = 102

[[record]]
compound = "O=S(=O)(Cc1ccc(Cl)cc1Cl)c1ccc(Cl)cc1"
measurement_unit = "%"
data_value = 36.5

[[record]]
compound = "CC(C)OC1OC(OC(C)C)C(OC(C)C)OC1OC(C)C (stereo not given)"
measurement_unit = "%"
data_value = 123


Entry under review: COc1ccc(-c2nn(C(=O)NCCN(C)C)cc2-c2ccncc2)cc1Cl . Reported growth?
16

What does the data say about its growth? Entry: CN(C)N1C(=O)c2c(Cl)c(Cl)c(Cl)c(Cl)c2C1=O
108

Given the entry CCN(CC)Cc1cc(Nc2ccnc3ccc(OC)cc23)ccc1O , report its measured growth.
71.2

Value lookup for growth; key = COc1ccccc1CNCCCN1C(=O)c2ccc3c4c(ccc(c24)C1=O)C(=O)N(CCCOCCCCOCCCN)C3=O
14

====

System: SR leukemia
Assay method text: NCI-60 one-dose screen, 48 h (100 = growth as untreated, 0 = no growth, -100 = all killed)
Condition details: 10 µM unless noted
The panel holds about 83,000 compounds, 20% with a hit somewhere; the sample as a whole holds those more often. Activity calls are given as the source filed them. How the source made its calls: active means growth percent below 10; inactive means the rest.
Readout: growth

Notebook entry, SR leukemia assay: growth of Cc1csc(N/N=C/c2ccncc2)n1 = ?
96.6% (inactive)

For the record Cc1ccsc1C(=O)CC(=O)C(F)(F)C(F)(F)C(F)(F)F , what value of growth is listed for SR leukemia?
108% (inactive)

Give the reported growth for CS(=O)(=O)c1ccc(C(=O)N2N=C(c3ccccc3)CC2c2ccc3c(c2)OCO3)cc1 (stereo unspecified) (system: SR leukemia).
90.9% (inactive)

Fill in the recorded growth for this compound, with SR leukemia as test system: COc1cc(/C=C\c2cc(/C=C\c3ccc(O)c(OC)c3)n(C(=O)Nc3ccc(C(F)(F)F)cc3)n2)ccc1O
13.2% (inactive)
